Target: ZIKV envelope glycoprotein (E) of strain MR766 (Uganda 1947) (Zika virus, UniProt Q32ZE1 291-790)
Sequence (Q32ZE1 291-790 limits assumed): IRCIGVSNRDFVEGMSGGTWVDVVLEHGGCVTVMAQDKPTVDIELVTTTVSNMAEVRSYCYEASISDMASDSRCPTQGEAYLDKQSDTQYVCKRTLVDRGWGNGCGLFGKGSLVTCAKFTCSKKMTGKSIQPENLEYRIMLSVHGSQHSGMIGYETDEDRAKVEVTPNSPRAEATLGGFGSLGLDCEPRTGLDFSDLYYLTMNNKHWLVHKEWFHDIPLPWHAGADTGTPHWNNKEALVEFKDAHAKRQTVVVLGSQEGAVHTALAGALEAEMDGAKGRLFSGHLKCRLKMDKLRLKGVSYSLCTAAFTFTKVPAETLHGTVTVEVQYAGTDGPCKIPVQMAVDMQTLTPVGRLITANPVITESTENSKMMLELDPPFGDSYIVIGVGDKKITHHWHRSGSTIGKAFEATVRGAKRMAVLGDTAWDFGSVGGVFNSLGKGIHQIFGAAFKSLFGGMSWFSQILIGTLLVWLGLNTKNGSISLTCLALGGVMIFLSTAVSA
Assay: cell-based or functional assay
The reader will find reported neutralization IC50, Vero cells values listed item by item below.
A complete answer gives the number followed by the unit.

H4H25641P (antibody, V domains shown) VH: QVQLVESGGGVVQPGRSLRLSCAASGFTFSYYGMHWVRQAPGKGLEWVAVISYDASNNYYVDSVKGRFTISRDNSKNTLYLQMNSLRAEDTAVYYCAKDYGGRFDYWGQGTLVTVSS VL: EIVLTQSPGTLSLSPGERATLSCGASQSVSSYLAWYQQKPGQTPRLLIYGASSRATGIPDRFSGSGSGTDFTLTISRLEPEDFAVYYCQQYGSSPWTFGQGTKVEIK : 37.1 pM
H4H25619P (antibody, V domains shown) VH: QVQLVESGGGVVQPGRSLRLSCTASGFTFSTYGMHWVRHVPGKGLEWVAIVWYDGSDKSYAASVKGRFTISRDNSKNTLFLQMNSLRAEDTAVYYCARQGTYYYYGMDVWGQGTTVTVSS VL: DIQMTQSPSSLSASVGDRVTITCRSSQTITNYLNWYQQRPGKAPKLLIYAASSLQSGVPSRFSGSGSGTDFTLTISSLQPEDFATYYCQQSYSTPPITFGQGTKLEIKR : 171 pM
H4H25591P (antibody, V domains shown) VH: QVQLVESGGGVVQPGRSLRLSCAASGFTFSYSGMHWVRQAPGKGLEWVAVISYDGINKYYADSVKGRFTISRDNSKNTLYLQMNSLRPEDTAVYYCAKDRGGRFDPWGQGTLVTVSS VL: DIQMTQSPSSLSASVGDRVTITCRASQGISNYLAWYQQKPGKVPNLLIYGASTLHSGVPSRFSGSGSGTDFTLTISSLQPADVATYYCQKYNSAPLTFGGGTKVEIK : 34.3 pM

Then there is this binder:
Prompt: Form field: reported neutralization IC50, Vero cells of H4H25587P (antibody, V domains shown) VH: EVQLVESGGGLVQPGRSLTLSCAASGFTFDDYVMHWVRQAPGKGLEWVSGISWNSDTIDYADSVKGRFTISRDNAKNSLYLQMNSLRAEDTALYYCAKDRRSWYGGYFDYWGQGTLVTVSS VL: DIQMTQSPSSLSASVGDRVTITCRASQGISSYLAWYQQKPGKVPKLLIYAASTLQSGVPSRFSGSGSGTDFSLTISSLQPEDVATYYCQKYNSAPLTFGGGTKVEIK
Completion: 150 pM
